Provenance of the data: the supplement of paper PMC4466140

target: AgBbc1; assay: SPOT peptide array binding signal intensity (averaged, normalized) (arbitrary units (background-subtracted, floor 0; scale differs between SH3 domains)); higher = stronger binding of the SH3 domain to the peptide
class 1 means recorded SPOT peptide array binding signal intensity is 30 or above; class 0 means it is below 30.

Look over these answered cases.
{"Binder": "KRKRRLPVSEDTNTK", "Class": "class 0"}
{"Binder": "PVLPPPRSPNRPTLS", "Class": "class 1"}
{"Binder": "NAGIRPKFILALNDE", "Class": "class 0"}

Quick check: does TKPTPPPKPSHLKPK have SPOT peptide array binding signal intensity greater than or equal to 30?
class 1

Quick check: does QPWTDQFEKLEKEVS have SPOT peptide array binding signal intensity greater than or equal to 30?
class 0

Quick check: does GRLRPKRIAPWHLIQ have SPOT peptide array binding signal intensity greater than or equal to 30?
class 0

Quick check: does DDEDVPPQLPTRTKS have SPOT peptide array binding signal intensity greater than or equal to 30?
class 0

Quick check: does KNRKNLPTIPIRLSG have SPOT peptide array binding signal intensity greater than or equal to 30?
class 1

Quick check: does SPLGAPPPPPHKDHL have SPOT peptide array binding signal intensity greater than or equal to 30?
class 0

Quick check: does FYHRPAPKPPVTKKV have SPOT peptide array binding signal intensity greater than or equal to 30?
class 1
